# assay.method.text: Half life in plasma of human HCT116 cells xenografted BALB/c mouse at 80 mg/kg, po administered as single dose by LC-MS/MS analysis
# Type: ADME, organism-based
quantity.measured: half-life (h)
Give the value in h but do not write h after it.

What does the record list as half-life for Cc1cc(C)c(S(=O)(=O)N(CC(=O)O)c2ccc(Nc3ccnc(N4CCNCC4)n3)cc2)c(C)c1 ?
1.46

====

# assay.method.text: Stability of the compound in mouse plasma assessed as parent compound remaining at 1 uM measured after 10 mins by LC-MS/MS analysis
# Type: ADME, cell-free
# experimental.parameters: read-out: Stability
The following compounds are listed with their measured remaining at 10 min, 1 µM values.

What does the record list as remaining at 10 min, 1 µM for Cc1cc(C)c(S(=O)(=O)N(CC(=O)O)c2ccc(Nc3ccnc(N4CCNCC4)n3)cc2)c(C)c1 ?
100%

Proceeding to the next compound to report its remaining at 10 min, 1 µM.
What does the record list as remaining at 10 min, 1 µM for Cc1cc(C)c(S(=O)(=O)N(CC(=O)O)c2ccc(Nc3ccnc(N4CCCC4)n3)cc2)c(C)c1 ?
100%

====

# assay.method.text: AUC (0 to t) in tumor of human HCT116 cells xenografted BALB/c mouse at 80 mg/kg, po administered as single dose by LC-MS/MS analysis
# Assay type: ADME, organism-based, Neoplasm
quantity.measured: AUC(0-t) (µg·h/mL)
Give the value in µg·h/mL but do not write µg·h/mL after it.

What does the record list as AUC(0-t) for Cc1cc(C)c(S(=O)(=O)N(CC(=O)O)c2ccc(Nc3ccnc(N4CCNCC4)n3)cc2)c(C)c1 ?
132

====

# assay.method.text: Tmax in tumor of human HCT116 cells xenografted BALB/c mouse at 80 mg/kg, po administered as single dose by LC-MS/MS analysis
# Assay type: ADME, organism-based, Neoplasm
quantity.measured: Tmax
Quick note: number first, unit second.

What does the record list as Tmax for Cc1cc(C)c(S(=O)(=O)N(CC(=O)O)c2ccc(Nc3ccnc(N4CCNCC4)n3)cc2)c(C)c1 ?
1 h

====

The following molecules are listed with their measured logD values.
# assay.method.text: Distribution coefficient, log D of the compound at pH 7.4 by potentiometric titration method
# Type: physicochemical
# experimental.parameters: octanol/water
Enter a number only.

What does the record list as logD for Cc1cc(C)c(S(=O)(=O)N(CC(=O)NO)c2ccc(Nc3ccnc(N4CCNCC4)n3)cc2)c(C)c1 ?
0.82

What does the record list as logD for Cc1cc(C)c(S(=O)(=O)N(CC(=O)O)c2ccc(Nc3ccnc(N4CCCC4)n3)cc2)c(C)c1 ?
1.67

What does the record list as logD for Cc1cc(C)c(S(=O)(=O)N(CC#N)c2ccc(Nc3ccnc(N4CCNCC4)n3)cc2)c(C)c1 ?
2.01

---
What does the record list as logD for COc1cc(S(=O)(=O)Nc2ccc(Nc3ccnc(N4CCCC4)n3)cc2)c(C)cc1C ?
4.82

What does the record list as logD for COC(=O)CN(c1ccc(Nc2ccnc(N3CCNCC3)n2)cc1)S(=O)(=O)c1c(C)cc(C)cc1C ?
2.63

What does the record list as logD for Cc1cc(C)c(S(=O)(=O)N(CC(=O)O)c2ccc(Nc3ccnc(N4CCNCC4)n3)cc2)c(C)c1 ?
1.93
